These data points were gathered from patent US10435400B2.

- Test system: A431 cells
- PROTOCOL TEXT: ELISA cell activity, EGF-stimulated A431 cells;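 further: Serum-starved A431 cells pretreated with compound for 1 h, then stimulated with EGF for 45 min, lysates read by ELISA (OD450 minus OD570), EGF-only wells as control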
- Format: cell-based
- PARTICULARS: Homo sapiens, A-431; ELISA, compound 1 h then EGF 45 minutes; read-out: A431 cells (IC50/nM)
OBSERVABLE: IC50 (nM)

Example entries and their recorded answers appear below.
Q: Under A431 cells: report IC50 of `C=CC(=O)Nc1cc(Nc2ncc(Cl)c(-c3ccn(C)c3)n2)c(OC)cc1N(C)CCN(C)C` .
Ans: 663

Q: Give IC50 for `C=CC(=O)Nc1cc(Nc2ncc(Cl)c(-c3cn(C)nc3C)n2)c(OC)cc1N1CCC(N(C)C)CC1` tested on A431 cells.
Ans: 4960

Q: Fetch value of IC50 on A431 cells for C=CC(=O)Nc1cc(Nc2ncc(OC)c(-c3cnc4ccccc4c3)n2)c(OC)cc1N1CCC(N(C)C)CC1 [compound 3, reference compound] .
Ans: 3110

Q: Recall the reported IC50 of `C=CC(=O)Nc1cc(Nc2ncc(Cl)c(-c3cn[nH]c3)n2)c(OC)cc1N1CCC(N(C)C)CC1` on A431 cells and write it down.
Ans: 1020

Q: Find IC50 for C=CC(=O)Nc1cc(Nc2nccc(-c3cccnc3)n2)c(OC)cc1N1CCC(N(C)C)CC1 [compound 2, reference compound] on A431 cells and write it down.
Ans: 199

[a] C=CC(=O)Nc1cc(Nc2ncc(Cl)c(-c3cnn(C)c3C)n2)c(OC)cc1N1CCC(N(C)C)CC1
[b] C=CC(=O)Nc1cc(Nc2ncc(Cl)c(-c3cnn(C4CCNCC4)c3)n2)c(OC)cc1N1CCC(N(C)C)CC1
Q: Consider a and b . Which of these has its IC50 at a higher number? // return label of chosen record
Ans: a
